# Test system: SW-620 colon
# protocol-summary: NCI tumour cell line growth inhibition, 48 h; in the data active = GI50 below about 0.43 µM; inactive = the rest
Can you answer with just one of these options? active, inactive

COc1cccc(C2C3=C(COC3=O)N(CCO)c3cc4c(cc32)OCO4)c1 (stereo not drawn) = active
CCS(=O)(=O)c1ccc(OC)c(Nc2ncc(-c3ccccc3Cl)o2)c1 = inactive

Any idea what this test logged for COc1ccc(N(/C=C/C(=O)C(F)(F)F)CC(=O)c2ccc(Cl)cc2)cc1 ? inactive

----------
# System: OVCAR-5 ovarian
# protocol-summary: NCI tumour cell line growth inhibition, 48 h; in the data active = GI50 below about 0.43 µM; inactive = the rest
Allowed answers: 1 (active), 0 (inactive)

These solved cases illustrate the format of a correct answer.
CN1CCN(Cc2ccc3c(NNC(=O)c4ccccc4)nc4cc(F)ccc4n23)CC1 = 0
Cc1cc(Cl)ccc1Nc1nc(C(F)(F)F)ccc1C(=O)N/N=C/c1ccccc1Cl = 0
COc1ccc(Cn2cc3c(c2-c2ccccc2)CCc2cnoc2-3)cc1N = 0

# fetch the recorded call for COc1cc2c(=O)n(CCN(C)C)c3c4cc5c(cc4ccc3c2cc1OC)OCO5 here 0

Per the records of this test, what outcome belongs to CC(=O)c1cc(C(=O)c2ccc3c(c2)Sc2ccccc2N3)c2c(C)cccn12 ? 0

Answer briefly: the call reported for O=c1cc(-c2ccccc2)oc2cc(OC/C(=N/O)c3ccc(F)cc3)ccc12 in this assay. 0

Fill in: this test's call for O=C(NCc1ccco1)c1cccc(NC2=C(Cl)C(=O)N(Cc3ccccc3)C2=O)c1 is ___ 0

What did this assay record as the result for N#Cc1c(N)nc(NCc2ccccc2)c(C#N)c1-c1ccc(Cl)cc1Cl ? 0

Short answer needed: outcome of this test for ClCc1cccc(CSc2ncnc3c2ncn3Cc2cccc(CCl)c2)c1 ? 0

For O=C(C[P+](c1ccccc1)(c1ccccc1)c1ccccc1)C[P+](c1ccccc1)(c1ccccc1)c1ccccc1 , what call appears in the results of this test? 1

----------
# System: SF-295 CNS
# protocol-summary: NCI tumour cell line growth inhibition, 48 h
Quick list: log10 TGI per entry.
Kindly note that the scale is log10 and the underlying TGI is in µM.

Answered cases to consult:
COc1nc2c(c(=O)n1C)N=C(c1ccc(Cl)cc1)CC(c1ccccc1)N2 (configuration not stated) = 1.76
O=C(NCCNc1nccc(-c2c(-c3cccc(O)c3)nc3sccn23)n1)c1ccccc1 = 1.58
c1ccc(P(=C2c3ccccc3-c3ccccc32)(c2ccccc2)c2ccccc2)cc1 = 1.21
COc1cc2c(=O)n(CCN(C)C)c3c4cc5c(cc4ccc3c2cc1OC)OCO5 = 0.50
CCN(CC)CCCNc1[nH]ncc2c(C)c3nc4ccc(OC)cc4c3cc12 = 0.81
COc1ccc2c(c1)c(=O)c1c(NCCN(C)C)ccc3nnn2c31 = 1.14

Name the recorded log10 TGI for Cc1ccc(-c2nc([P+](c3ccccc3)(c3ccccc3)c3ccccc3)c(Nc3ccccc3)o2)cc1 . 0.38

Consider the compound COP(=O)(OC)/C(=C/c1cn(C(c2ccccc2)(c2ccccc2)c2ccccc2)cn1)NC=O and give its measured log10 TGI. 1.48

For the compound shown here, COC(=O)/C=C\C(C#N)(C#N)N=Cc1sccc1C , give the reported log10 TGI. 1.55

----------
This section presents molecules with their documented GI50 values.
# System: COLO 205 colon
# protocol-summary: NCI tumour cell line growth inhibition, 48 h

Known results for molecules:
NC(=Nc1ccc(N)cc1)C(N)=Nc1ccc(N)cc1 = 43.5 µM
CC1=C(C)C2(O)C(=C(C)C1=O)/C(=C(/O)c1ccccc1)c1nc3ccccc3n12 (stereo not given) = 17.2 µM
O=C(NCc1ccco1)c1cccc(NC2=C(Cl)C(=O)N(Cc3ccccc3)C2=O)c1 = 16.2 µM
COc1ccc(C2C=C(c3ccc(Cl)cc3)N=C3SC=C(C)N32)c(Br)c1 (stereo not given) = 3.54 µM
C#COc1cccc(Nc2ncnc3cc(NC(=O)[C@H](C)Cl)ccc23)c1 = 3.86 µM

Lookup: GI50 / COLO 205 colon / COc1ccc(N(/C=C/C(=O)C(F)(F)F)CC(=O)c2ccc(Cl)cc2)cc1 18.6 µM

Lab note: need GI50 for COc1cccc(C2C3=C(COC3=O)N(CCO)c3cc4c(cc32)OCO4)c1 (stereo not given) on COLO 205 colon, anyone have it? 0.191 µM

Which GI50 is reported with COLO 205 colon for this entry: O=C(C[P+](c1ccccc1)(c1ccccc1)c1ccccc1)C[P+](c1ccccc1)(c1ccccc1)c1ccccc1 ? 0.398 µM

Request: GI50, test system COLO 205 colon, entry COc1ccccc1NS(=O)(=O)c1ccc2oc(SC(C)C)nc2c1 18.6 µM

Return GI50 measured with COLO 205 colon given this molecule: COc1ccc(Cn2cc3c(c2-c2ccccc2)CCc2cnoc2-3)cc1N 1.32 µM
